tested on: Kochia Kochia scoparia; experiment: Post-emergence greenhouse herbicide evaluation, kochia; assay type: in vivo; settings: 560 g ae/ha, 14 days after application, visual injury 0-100% vs untreated
% Control Kochia Kochia scoparia values by entry
readout_kind: % Control Kochia Kochia scoparia

molecule=CCCCCCCCn1ccnc1.O=C(O)COc1nc(Cl)c(Cl)cc1Cl measured_value=92%
molecule=CCCCCCN(C)C.O=C(O)COc1ccc(Cl)cc1Cl measured_value=97%
molecule="CCCCOCCOC(=O)COc1ccc(Cl)cc1Cl [2,4-D butoxyethylester (BEE), 2,4-D butoxyethylester, reference compound]" measured_value=95%
molecule="CNC.O=C(O)COc1ccc(Cl)cc1Cl [2,4-D dimethylamine (DMA), 2,4-D dimethylamine, reference compound]" measured_value=76%
